- assay.summary: yeast display, Sf9 membrane polyspecificity reagent, FACS + sequencing; frameworks hold sequencing errors

{"biosequence": "QVQLVESGGGLVQAGGSLRLSCAASGRIFVSNAMGWYRQAHGKERELVAGITWTSGSTYYADSVKGRFTISRDNAKNTVYLLMNSLKPEDTAVYYCAAEYWYGNAFDYWGEGTQVTVSS", "polyreactivity (PSR sort gate)": "low polyreactivity"}
{"biosequence": "QVQLVESGGGLVQAGGSLRLSCAASGRTFGLNVMGWYRPAPGKDRELVATISGVGSTNYADSVKGRFTISRDNAKNTVYLQMNSLKPEDTAVYYCAAGGTSGQEFGYWGQGTQVTVSS", "polyreactivity (PSR sort gate)": "low polyreactivity"}

* * *

- assay.summary: yeast display, Sf9 membrane polyspecificity reagent, FACS + sequencing; frameworks hold sequencing errors
recorded.endpoint: polyreactivity (PSR sort gate)

Worked cases, polyreactivity (PSR sort gate) given:
{"biosequence": "QVQLVESGGGLVQAGGSLRISCAASGSTFDYDDMRWYRQAPGKERELVASITSGGITDYADSVKGRFTISRDNAKNTVYLQMNSLTPEDTAVYYCNAARQYSRSAEGYLVWGYSWGQGTQVTVSS", "recorded.endpoint": "polyreactivity (PSR sort gate)", "assay.result": "low polyreactivity"}
{"biosequence": "QVQLVESGGGLVQAGGSLRLSCAASGTFVTYMGWYRQSPGKEREMVAAIRNGGSTNYADSVKGRFTISRDNAKNTVYLQMNSLKPEDTAVYYCAARVTYSRGYRGGSRTKYDYWGQGTQVTVSS", "recorded.endpoint": "polyreactivity (PSR sort gate)", "assay.result": "low polyreactivity"}
{"biosequence": "QVQLVESGGGLVQAGGSLRLSCAASGITFDYYVMGWYRQAPGKERELVAAISWSGGTTYYADSVKGRFTISRDYAKNTVYLQMNSLKPEDTAVYYCNAEHTGSFYGGYPWEMEYWGQGTQVTVSS", "recorded.endpoint": "polyreactivity (PSR sort gate)", "assay.result": "low polyreactivity"}
{"biosequence": "QVHLVESGGGLVQAGGSLRLSCAASAFIFNRNAMGGYRQAHGKERELVAAISRSGGRTYYADSVKGRFTISRDHAKNTVYIQMNSLKPEDTAVYYCATEGYHGEFDYWGQGTQVTVSS", "recorded.endpoint": "polyreactivity (PSR sort gate)", "assay.result": "high polyreactivity"}
{"biosequence": "QVQLVESGGGLVQAGGSLRLSCAASGSTFYSYAMGWYRQAPGKERELVAAITSGGSTNYADSVKGRFTISRDNAKNTVYLQMNSLKPEDTAVYYCARKYWHRSYGYDYWGQGTQVTVSS", "recorded.endpoint": "polyreactivity (PSR sort gate)", "assay.result": "low polyreactivity"}
{"biosequence": "QVQLVESGGGLVQAGGSIRLSCSASGSTFNIYAMGWYRKAPGKERELVAAISGNGDRTYYADSVKGRFTISRDNAKNTVYLQMTSLKPEDTAVYYCAAKYYGWGQGTQVTVSS", "recorded.endpoint": "polyreactivity (PSR sort gate)", "assay.result": "high polyreactivity"}
{"biosequence": "QVQLVESGGGLVQAGGSLRLSCAASGRTFPSNVMGWYRQAPGKEREFVAAITTRGGNTRYADSVKGRFTISRDNAKNTVYLQMNSLKPEDTAVYYCAAKVKPGYDYWGQGTQVTVSS", "recorded.endpoint": "polyreactivity (PSR sort gate)", "assay.result": "low polyreactivity"}
{"biosequence": "QVQLVESGGGLVQAGGSLRLSCAASGRTFRYYAMGWYRQAPGKERELVAAITRSGGSTNYADSVKGRFTISRDNAKNTVYLQMNSLKPEDTAVYYCNREGRSVSGYYYYWGQGTQVTVSS", "recorded.endpoint": "polyreactivity (PSR sort gate)", "assay.result": "high polyreactivity"}

Prompt line: Specify reported polyreactivity (PSR sort gate) for the sequence shown: `QVQLVESAGGLVQAGGSLRLSCAASGLTYYFYPMGWYRQAPGKETELVAAINYDDGSTYYADSVKGRFTISRDNAKNTVYLQMNSLKPEDTAVYYCAADRDFRTPRLYYWGQGTQVTVSS`
Response line: low polyreactivity

Prompt line: Identify the reported polyreactivity (PSR sort gate) for the following entry. `QVQLVESGGGLVQAGGSLRLSCAASGRTFRRYAMGWYRQAPGKERELVASISRTGGSTYYADSVKGRFTISRDNSKNTVYLQMNSLKPEDTAVFYCNAGPSVGWYNYWGQGTQVTVSS`
Response line: high polyreactivity

Prompt line: Return value of polyreactivity (PSR sort gate) for input `QVQLVDSGGVLVQAGGSLSLSCAASGITFPINAMGWYRQAPGKEREFVATISFSGASTYYADSVKGRFTISRDNAKNSVYLQMNSLKREDTAVYYCAARWKPPYWGRYYYWGQGTQVTVSS` , no commentary.
Response line: high polyreactivity

The measured values listed here are drawn from the nanobody polyreactivity screen of Harvey et al. (2022).
